B1: BCL2L13 (parent)
chain: QSLDQEILLKVKTEIEEELKSLDK

# Variants of: B1
# ASSAY COMMENT: protein stability index of a GFP-peptide fusion (GPS, HEK-293T) (PSI 1-6); higher = more stable;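 further: lentivirally expressed fusions sorted by FACS into six bins by GFP to DsRed ratio, PSI derived from sequencing read proportions per bin multiplied by bin number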
# EXPERIMENTAL CONDITIONS: c terminus: a fixed tail appended
PARAMETER MEASURED: protein stability index
Form: value (number only, do not type unit).

Look up protein stability index of "FSLDQEILLKVKTEIEEELKSLDK" and report it.
3.89

Look up protein stability index of "QSLQQEILLKVKTEIEEELKSLDK" and report it.
4.66

Look up protein stability index of "QSLDQEILMKVKTEIEEELKSLDK" and report it.
4.49

Look up protein stability index of "QSLDQEILLKVKTEIEEESKSLDK" and report it.
5

Look up protein stability index of "QSLDQEILLKVITEIEEELKSLDK" and report it.
2.6

Look up protein stability index of "QSLDQEILLKVKTEIVEELKSLDK" and report it.
3.69

Look up protein stability index of "QSLDQMILLKVKTEIEEELKSLDK" and report it.
3.71

Look up protein stability index of "QSLDQVILLKVKTEIEEELKSLDK" and report it.
3.92

Look up protein stability index of "QSLDQEIKLKVKTEIEEELKSLDK" and report it.
4.75

Look up protein stability index of "QSLDQEILLKVKTEIEEEVKSLDK" and report it.
5.63

Look up protein stability index of "QSLRQEILLKVKTEIEEELKSLDK" and report it.
3.63

Look up protein stability index of "QSLDQEILLKVKTEIEEELKSNDK" and report it.
5.16

Look up protein stability index of "QSLDQEILLKVKTEEEEELKSLDK" and report it.
5.8

Look up protein stability index of "QSLDQEILLKGKTEIEEELKSLDK" and report it.
5.36

Look up protein stability index of "QSLLQEILLKVKTEIEEELKSLDK" and report it.
2.79

Measured values drawn from the supplement of paper PMC10567573 for this set.
